Can you tell me cytotoxicity at 10 µM for the items I'm about to list?
PROCEDURE_DETAILS: Toxicity liver stage against HepG2, at 10uM
Format: cell-based
Parameters: test concentration 10 uM, cell line HepG2-A16-CD81EGFP
COND: human, HepG2-A16-CD81EGFP cells; read-out: INHIBITION
Record the value in %, omitting the unit from your answer.

Could you tell me which cytotoxicity at 10 µM is on file for `Cc1nn(CCn2ccnc2-c2cc3n(n2)CCCNC3)c(C)c1Cl` ?
-8.52

For the compound shown here, `Cc1cc(C)n(C2CN(CC(=O)N(C)Cc3ccsc3)C2)n1` , give the reported cytotoxicity at 10 µM.
-0.912

Need cytotoxicity at 10 µM of Cc1csc(N2CCCN(C(=O)C(C(C)C)n3cncn3)CC2)n1 (configuration not stated) , thanks.
-7.71

I'd like to know its cytotoxicity at 10 µM. The compound in question is `CCS(=O)(=O)CCSc1ccc(Br)cc1`
-7

Recorded cytotoxicity at 10 µM of `O=C(Cn1cnc2cc3c(cc21)OCCCO3)NCCc1ccccc1` , please.
7.57

Value lookup for cytotoxicity at 10 µM; key = `Cc1ccc(C(=O)N2CCC(Oc3ccc(C)c(C)c3)CC2)c(=O)[nH]1`
12.9

Record request: cytotoxicity at 10 µM value, item CC(C)(C)C(=O)N1CCC(c2noc(C3CCC(=O)N3)n2)CC1 (configuration not stated)
-3.06

Would you kindly share the measured cytotoxicity at 10 µM for Cc1cnn(CC2CCCN2C(=O)Cc2cn3ccsc3n2)c1 (configuration not stated) ?
-10.1

# input compound: `CN(Cc1cccnc1)C1CC2(CCN(Cc3cccnc3)CC2)C1` ; wanted: its cytotoxicity at 10 µM
-87.2

Report cytotoxicity at 10 µM for CC(Nc1cccc(CN2CCOC2=O)c1)C(=O)Nc1ccccc1 (configuration not stated) please.
-6.42

Give its cytotoxicity at 10 µM value. Item: `Cc1nn(C)c2cn(CC(=O)N3CCN(c4ccccn4)CC3)nc12`
3.57

Given the compound `CSc1ncnc(NCc2ccccc2F)c1C#N` , what is its reported cytotoxicity at 10 µM?
1.67

For the compound shown here, Cc1ccc(-c2nc(CCNC(=O)C3CC(=O)N(C)C3)cs2)cc1 (configuration not stated) , give the reported cytotoxicity at 10 µM.
-5.54

Query (compound): `CCN(CC(=O)NC)S(=O)(=O)N1CCCCCC1` ; field requested: cytotoxicity at 10 µM
5.04

Recorded cytotoxicity at 10 µM of Cc1noc(Cl)c1CC(=O)N1CCCC(n2cccn2)C1 (configuration not stated) , please.
-6.14

What value of measured cytotoxicity at 10 µM is listed for `Cc1cc2n(n1)CCN(c1nc(N(C)C)nc3c1CCNC3)C2` ?
0.94

Reported cytotoxicity at 10 µM, compound COc1cc(CNC2CCc3nc(C)nn3C2)cc2c1OCO2 (configuration not stated) : ____
-11.6

State the recorded cytotoxicity at 10 µM for this entry: Cc1cnc(N2CCCC(c3ccccc3)C2)nc1-c1ncnn1C (configuration not stated)
-1.79

What does the data say about its cytotoxicity at 10 µM? Entry: `CN1CCC2(CC1)CCN(C(=O)c1onc3ccccc13)C2`
-9.14

Dear colleague, I am looking for the recorded cytotoxicity at 10 µM of the following compound: COc1ccc(C(CC(=O)NCc2n[nH]c(N)n2)c2ccccc2)cc1 (configuration not stated)
7.66

Field request: cytotoxicity at 10 µM | item: CCOCC1CN(C2CCCC2)Cc2cnn(CC3CCOCC3)c21 (configuration not stated)
-9.13

Request the reported cytotoxicity at 10 µM associated with `CCN(CC)C(=O)CSc1nnc(CCNC(=O)OC(C)(C)C)o1`
12

====

Field: cytotoxicity at 10 µM. Provide a value for each of the compounds that follow.
PROCEDURE_DETAILS: Toxicity liver stage against HepG2, at 10uM
Format: cell-based
Design: test concentration 10 uM, cell line HepG2-A16-CD81EGFP
COND: human, HepG2-A16-CD81EGFP cells; read-out: INHIBITION
Expressed in %, but write only the number.

What measured cytotoxicity at 10 µM goes with `Cc1cccc(CN2CC[C@@H]3[C@@H](CO[C@H]3CNc3ncccn3)C2)n1` ?
-5.55

What value of measured cytotoxicity at 10 µM is listed for `O=C(NC[C@H]1OC[C@@H](NC2CCCC2)[C@@H]1O)C1CCCC1` ?
-2.15

Looking for the measured cytotoxicity at 10 µM of `CC(=O)NCCNC(=O)c1cccc(Cn2nc(C)cc2C)c1` , can you help?
-10.3

Name the recorded cytotoxicity at 10 µM for `Cc1csc([C@H]2C[C@@H]3CCN(C(=O)c4ccnnc4)C[C@H]3O2)n1` .
-1.95

Any idea what its cytotoxicity at 10 µM is? The compound is O=C(CN1CCSC(c2ccccc2)C1)NCc1ccccn1 (centres undefined)
14.5

GET /values?readout=cytotoxicity at 10 µM&item= `CNC(=O)CN1CC[C@H]2CN(C(=O)c3cccn3C)C[C@H]2C1`
2.31

I am curious: what cytotoxicity at 10 µM value has been reported for `Cc1ccc(C(=O)N2CCSCC2)cc1NC(C)C` ?
-3.42

Entry Cc1cccnc1C(=O)N1CCCC(c2[nH]ncc2S(C)(=O)=O)C1 (centres undefined) : reported cytotoxicity at 10 µM = ?
7.58

Item under review: `Cc1nc(COC[C@@H]2CC[C@H]3[C@H](CCN3c3ccccn3)O2)cs1` . Reported cytotoxicity at 10 µM?
4.06

# lookup: cytotoxicity at 10 µM of `CN(C[C@@H]1CCC[C@@H]2CN(c3ncccn3)C[C@@H]21)C1CC1`
5.18

Look up cytotoxicity at 10 µM for this compound: CCS(=O)(=O)N1CCC(C(=O)NC(Cc2ccsc2)c2nccs2)CC1 (centres undefined)
-2.72

Entry CCN1CC(C(=O)NCc2nn(CC)c3ccccc23)CCC1=O (centres undefined) has what cytotoxicity at 10 µM?
-5.83

What measured cytotoxicity at 10 µM goes with `Cc1ccsc1C(=O)N1CCN(Cc2cscn2)CC1` ?
-12

Reported cytotoxicity at 10 µM for `CCCNC(=O)NC(=O)CNC(C)(C)c1ccc2c(c1)OCO2` : what is it?
-12.7

What value of measured cytotoxicity at 10 µM is listed for COc1c(C(=O)NCC(C)Sc2ccccc2)c(C)nn1C (centres undefined) ?
12.1

Report cytotoxicity at 10 µM for CN1CCc2nc(C3CCCN(C(=O)CC(C)(C)C)C3)ncc2C1 (centres undefined) please.
-10.3

Sample `CCOc1ccc2cc(C(=O)N3CCn4c(CC)nnc4C3)[nH]c2c1` — what was its cytotoxicity at 10 µM?
-4.77

Name the recorded cytotoxicity at 10 µM for `NCCc1c(-c2ccccc2)[nH][nH]c1=O` .
5.95

What does the data say about its cytotoxicity at 10 µM? Entry: `Cc1nc2c(c(N3CCN(c4ncccc4C(N)=O)CC3)n1)CCNC2`
-4.69

# lookup: cytotoxicity at 10 µM of `O=C(Cn1ccc2ccc(F)cc21)NCc1ccc(C(=O)O)cc1`
6.86

Reported cytotoxicity at 10 µM, compound `O=C([C@H]1CC[C@@H]2[C@@H](CCN2Cc2nccs2)O1)N1CCOCC1` : ____
-0.891

Look at this compound and give its reported cytotoxicity at 10 µM. `Cc1ccc(C)n1-c1ccsc1C(=O)NCC(=O)N1CCCC1`
-143

Given the compound `Cc1cccc(CNCc2ccc(NC(=O)NC(C)C)cc2)c1` , what is its reported cytotoxicity at 10 µM?
-3.03

Fill in: cytotoxicity at 10 µM of COC1CCCN(C(=O)NCc2ccc(C(=O)N(C)C(C)C)cc2)C1 (centres undefined) is ___
-24.8

====

PROCEDURE_DETAILS: Toxicity liver stage against HepG2, at 10uM
Assay type: cell-based
Parameters: test concentration 10 uM, cell line HepG2-A16-CD81EGFP
COND: human, HepG2-A16-CD81EGFP cells; read-out: INHIBITION
I'd be grateful if you could share measured cytotoxicity at 10 µM for these entries.

Entry `COc1cccc2c3c(c(=O)[nH]c12)CCC(C)(C)O3` : reported cytotoxicity at 10 µM = ?
-1.43%

Dear colleague, I am looking for the recorded cytotoxicity at 10 µM of the following molecule: `CC(=O)Nc1ccc(CNC(=O)CNCc2nnc(C)o2)cc1`
10.7%

# cytotoxicity at 10 µM lookup, item `CS(=O)(=O)N1C[C@@H]2COC[C@]2(C(=O)NCCc2cccs2)C1`
-110%

====

PROCEDURE_DETAILS: Toxicity liver stage against HepG2, at 10uM
Format: cell-based
Parameters: test concentration 10 uM, cell line HepG2-A16-CD81EGFP
COND: human, HepG2-A16-CD81EGFP cells; read-out: INHIBITION
EXPERIMENTAL_ENDPOINT: cytotoxicity at 10 µM (%)
Write down the numeric answer in % and omit the unit.

Entry under review: O=C1C(NS(=O)(=O)c2cccc(F)c2)CCN1Cc1ccccc1 (stereo not given) . Reported cytotoxicity at 10 µM?
-1.67

Quick one: cytotoxicity at 10 µM for `COc1nccc(C(F)(F)F)c1C(=O)O` ?
16

Which cytotoxicity at 10 µM value belongs to O=C(c1cnn2c1OCCC2)N1CCN(C(=O)C2CCCO2)CC1 (stereo not given) ?
-6.19

Quick check: cytotoxicity at 10 µM of CC(C)CSCCCNC(=O)C1CCOC1 (stereo not given) ?
-5.81

// lookup cytotoxicity at 10 µM for `NCCc1n[nH]c(=O)n1-c1cccc2ccccc12`
3.96

Record request: cytotoxicity at 10 µM value, item `COCCC(=O)N1Cc2[nH]nc(COc3cccnc3)c2C1`
-2.97

# input compound: CCc1ccc(C(=O)N2CCCC3(CCCC(=O)N3C)C2)cc1 (stereo not given) ; wanted: its cytotoxicity at 10 µM
-5.72

Given `COCCCNC(=O)CN(C)C(=O)c1ccc(OC)cc1O` , state its recorded cytotoxicity at 10 µM.
-10.7

Please report the recorded cytotoxicity at 10 µM for `Cc1nc(Cn2c(=O)cnc3ccccc32)n(C)n1` .
-0.825

// query cytotoxicity at 10 µM value for entry `CN(Cc1cn2c(n1)CN(C(=O)c1cccnc1)CC2)Cc1ccco1`
-2.19

// lookup cytotoxicity at 10 µM for `COc1ccccc1[C@@H]1CN(Cc2c(C)noc2C)C[C@H]1C(=O)O`
-9.94

Return reported cytotoxicity at 10 µM; argument: `Cn1c(=O)oc2ccc(NC(=O)N3CCSCC3)cc21`
2.58

For the compound c1csc(-c2nc(CN3CCOC(Cn4cncn4)C3)cs2)c1 (stereo not given) , what cytotoxicity at 10 µM is on record?
-3.91

Any idea what its cytotoxicity at 10 µM is? The compound is `COCCN1CCCn2c(nc(Cn3cncn3)cc2=O)C1`
3.39

Which cytotoxicity at 10 µM reading was recorded for the compound O=C(CCN1CCCO1)NC1CCCN(CC2CCCCC2)C1 (stereo not given) ?
7.3
